system: Aspergillus flavus; assay: MIC, RPMI medium; assay type: cell-based; conditions: Aspergillus flavus, MIC banded into grades, read-out: MIC grade, A. flavus
Provide the recorded MIC for the entries that follow.

Record excerpt, results attached:
molecule	MIC
COCCOCn1c(C)cc(-c2ccccc2)c1C(=O)C(=O)Nc1ccc(N2CCN(c3cc(C)cc(C)n3)CC2)cc1 [Example 138]	1 to 10 µg/mL
Cc1cc(C)nc(N2CCN(c3ccc(NC(=O)C(=O)c4c(C5CCOCC5)cc(C)n4C)cc3)CC2)c1 [Example 15]	< 1 µg/mL
COCCn1ccc(C(C)C)c1C(=O)C(=O)Nc1ccc(N2CCN(c3cc(C)cc(C)n3)CC2)cc1 [Example 83]	> 10 µg/mL

For the next question, use this molecule.
Fill in the blank: the reported MIC of Cc1cc(-c2ccccc2)c(C(=O)C(=O)Nc2ccc3ccccc3c2)n1C [Example 44] is ____.
< 1 µg/mL
